# ASSAY PROTOCOL: Caco-2 permeability assay (CacoReady kit)
# Type: in vitro ADME
# COND: human
MEASURED PROPERTY: Papp

MOLECULE | MEASURED PROPERTY | ENDPOINT RESULT
COC(=O)/C=C/CC[C@H](NC(=O)c1coc(S(N)(=O)=O)c1)C(=O)Nc1cccn(CC(=O)NC2C3CC4CC2CC(NC(C)=O)(C4)C3)c1=O (stereo partly drawn) | Papp | < 1 ×10⁻⁶ cm/s

Prompt: Please give the measured Papp for this molecule: COC(=O)/C=C/CC[C@H](NC(=O)c1sc(C(F)(F)F)nc1C)C(=O)Nc1cccn(CC(=O)N[C@@H]2C[C@H]3CC[C@@H]2C3)c1=O
Response: 1 to 10 ×10⁻⁶ cm/s

Prompt: Fill in: Papp of COC(=O)/C=C/CC[C@H](NC(=O)c1cc(Br)sc1Br)C(=O)Nc1cccn(CC(=O)NC2C3CC4CC(C3)CC2C4)c1=O (stereo partly drawn) is ___
Response: 1 to 10 ×10⁻⁶ cm/s

* * *

# ASSAY SYSTEM: recombinant human transglutaminase 2 (Homo sapiens)
# Sequence (P21980 whole entry): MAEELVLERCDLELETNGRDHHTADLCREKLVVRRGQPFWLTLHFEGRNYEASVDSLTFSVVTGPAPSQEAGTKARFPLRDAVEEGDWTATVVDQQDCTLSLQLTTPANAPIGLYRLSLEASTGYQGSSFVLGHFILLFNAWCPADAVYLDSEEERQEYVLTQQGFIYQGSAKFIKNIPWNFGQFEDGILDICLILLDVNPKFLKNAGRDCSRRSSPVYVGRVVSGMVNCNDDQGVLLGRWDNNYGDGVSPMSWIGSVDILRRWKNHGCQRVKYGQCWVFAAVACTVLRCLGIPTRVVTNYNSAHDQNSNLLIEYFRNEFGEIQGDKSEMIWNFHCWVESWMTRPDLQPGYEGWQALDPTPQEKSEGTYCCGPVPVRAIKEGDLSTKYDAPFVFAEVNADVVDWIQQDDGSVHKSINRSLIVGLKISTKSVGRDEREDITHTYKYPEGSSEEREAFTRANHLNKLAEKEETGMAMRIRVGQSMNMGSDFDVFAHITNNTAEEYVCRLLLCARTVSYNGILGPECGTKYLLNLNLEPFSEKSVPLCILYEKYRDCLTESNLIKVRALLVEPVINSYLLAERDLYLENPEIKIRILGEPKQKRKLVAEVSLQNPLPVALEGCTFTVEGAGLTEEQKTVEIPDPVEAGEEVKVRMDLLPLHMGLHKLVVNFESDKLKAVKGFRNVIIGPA
# ASSAY PROTOCOL: Transglutaminase assay (dansylcadaverine incorporation into dimethylcasein, DCC-assay)
# COND: recombinant human TG2 10 nM, dansylcadaverine/dimethylcasein, 37° C.
pIC50: −log10 of the molar value.
// pIC50 lookup, one value per entry

COMPOUND | pIC50
O=C(/C=C/CC[C@H](NC(=O)c1cnc2ccc(OC(F)(F)F)cc2c1O)C(=O)Nc1cccn(CC(=O)NC23CC(C2)C3)c1=O)NC1CC1 | 5.82 to 6.60

Prompt: # pIC50 lookup, item COC(=O)/C=C/CC[C@H](NC(=O)c1ccnn1C)C(=O)Nc1cccn(CC(=O)N[C@H]2C[C@H]3CC[C@]2(C)C3(C)C)c1=O
Response: 6.60 to 7.60

Prompt: Requested read-out: pIC50. Entry: COC(=O)/C=C/CC[C@H](NC(=O)c1oc2ccccc2c1C)C(=O)Nc1cccn(CC2C3CC4CC(C3)CC2C4)c1=O (stereo partly shown)
Response: 5.82 to 6.60

Prompt: Suppose we examine the compound COC(=O)/C=C/CC[C@H](NC(=O)c1oc2ccccc2c1C)C(=O)Nc1cccn(CC(=O)NC2C3CC4CC(C3)CC2C4)c1=O (stereo partly shown) ; what pIC50 value has been reported?
Response: > 7.60

Prompt: Entry under review: CCC(CC)CNC(=O)Cn1cccc(NC(=O)[C@H](CC/C=C/C(=O)OC)NC(=O)c2cncn2C)c1=O [Ref. 2, reference compound] . Reported pIC50?
Response: 6.60 to 7.60

Prompt: Could you share which pIC50 value was measured for COC(=O)/C=C/CC[C@H](NC(=O)c1snnc1C)C(=O)Nc1cccn(CC(=O)NC23CC4(C)CC(C)(CC(C)(C4)C2)C3)c1=O ?
Response: > 7.60

Prompt: Consider the compound shown here: COC(=O)/C=C/CC[C@H](NC(=O)c1cccnn1)C(=O)Nc1cccn(CC(=O)NC2C3CC4CC(C3)CC2C4)c1=O (stereo partly shown) What is its recorded pIC50?
Response: > 7.60

Prompt: Bench note: what pIC50 did Cc1c(C(=O)N[C@@H](CC/C=C/C(=O)N(C)C)C(=O)Nc2cccn(CC(=O)NC34CC5CC(C)(CC(C)(C5)C3)C4)c2=O)oc2ccccc12 show?
Response: 6.60 to 7.60

Prompt: # lookup: pIC50 of COC(=O)/C=C/CC[C@H](NC(=O)c1cnnn1C)C(=O)Nc1cccn(CC(=O)NC23CC4CC(C)(CC(C)(C4)C2)C3)c1=O
Response: > 7.60

Prompt: pIC50 for COC(=O)/C=C/CC[C@H](NC(=O)c1nn[nH]n1)C(=O)Nc1cccn(CC(=O)NC2C3CC4CC(C3)CC2C4)c1=O (stereo partly shown) ?
Response: 6.60 to 7.60

Prompt: Which value of pIC50 has been reported for COC(=O)/C=C/CC[C@H](NC(=O)c1snnc1C=O)C(=O)Nc1cccn(CC(=O)NC2(C(=O)O)C3CC4CC2CC(C(F)(F)F)(C4)C3)c1=O (stereo partly shown) in the records?
Response: 5.82 to 6.60

* * *

# ASSAY PROTOCOL: Log D shake flask method (octanol / PBS pH 7.4, HPLC)
# Format: physicochemical
# COND: octanol/phosphate-buffered saline (PBS); octanol / PBS pH 7.4, shake flask
MEASURED PROPERTY: logD

Use the examples below as a reference point.
COMPOUND | MEASURED PROPERTY | ENDPOINT RESULT
COC(=O)/C=C/CC[C@H](NC(=O)[C@@H]1CCCCN1)C(=O)Nc1cccn(CC(=O)NC2C3CC4CC(C3)CC2C4)c1=O (stereo partly drawn) | logD | 3 to 5
COC(=O)/C=C/CC[C@H](NC(=O)c1coc(S(N)(=O)=O)c1)C(=O)Nc1cccn(CC(=O)NC2C3CC4CC2CC(NC(C)=O)(C4)C3)c1=O (stereo partly drawn) | logD | < 1

Prompt: What value of logD has been reported for the following compound? COC(=O)/C=C/CC[C@H](NC(=O)[C@@H]1CCCN1C)C(=O)Nc1cccn(CC(=O)NC2C3CC4CC(C3)CC2C4)c1=O (stereo partly drawn)
Response: 3 to 5

* * *

# ASSAY PROTOCOL: Log D shake flask method (octanol / PBS pH 7.4, HPLC)
# Assay type: physicochemical
# COND: octanol/phosphate-buffered saline (PBS); octanol / PBS pH 7.4, shake flask
Each entry below lists one item and its recorded logD value.

MOLECULE | MEASURED PROPERTY | ENDPOINT RESULT
COC(=O)/C=C/CC[C@H](NC(=O)c1noc(C)n1)C(=O)Nc1cccn(CC(=O)NC23CC(C2)C3)c1=O | logD | < 1

Prompt: // lookup logD for COC(=O)/C=C/CC[C@H](NC(=O)c1snnc1C)C(=O)Nc1cccn(CC(=O)NC23CC4CC(C)(CC(C)(C4)C2)C3)c1=O
Response: 1 to 3

Prompt: Request the reported logD associated with CCCCCNC(=O)/C=C/CC[C@H](NC(=O)c1cn2ccsc2n1)C(=O)Nc1cccn(CC(=O)NC23CC(C2)C3)c1=O
Response: 1 to 3

Prompt: Given the molecule COC(=O)/C=C/CC[C@H](NC(=O)c1sc(C(F)(F)F)nc1C)C(=O)Nc1cccn(CC(=O)N[C@@H]2C[C@H]3CC[C@@H]2C3)c1=O , what is its reported logD?
Response: 1 to 3

* * *

# ASSAY PROTOCOL: Log D shake flask method (octanol / PBS pH 7.4, HPLC)
# Assay type: physicochemical
# COND: octanol/phosphate-buffered saline (PBS); octanol / PBS pH 7.4, shake flask
MEASURED PROPERTY: logD

COMPOUND | logD
COC(=O)/C=C/CC[C@H](NC(=O)c1cc(Cl)sc1Cl)C(=O)Nc1cccn(CC(=O)NC23CC4(C)CC(C)(CC(C)(C4)C2)C3)c1=O | 3 to 5
COC(=O)/C=C/CC[C@H](NC(=O)c1oc2ccccc2c1C)C(=O)Nc1cccn(CC(=O)NC[C@@H]2CC[C@H]3C[C@@H]2C3(C)C)c1=O | 3 to 5
COC(=O)/C=C/CC[C@H](NC(=O)c1cn[nH]n1)C(=O)Nc1cccn(CC(=O)NC2C3CC4CC(C3)CC2C4)c1=O (stereo partly shown) | 1 to 3

Prompt: Would you kindly share the measured logD for COC(=O)/C=C/CC[C@H](NC(=O)c1cncn1C)C(=O)Nc1cccn(CC(=O)N[C@@H]2C[C@@H]3CC[C@H]2C3)c1=O ?
Response: 1 to 3

Prompt: Could you tell me which logD is on file for COC(=O)/C=C/CC[C@H](NC(=O)c1cn(C)nn1)C(=O)Nc1cccn(CC(=O)NC2C3CC4CC(C3)CC2C4)c1=O (stereo partly shown) ?
Response: 1 to 3

Prompt: So what does the record say about logD for COC(=O)/C=C/CC[C@H](NC(=O)c1oc2ccccc2c1C)C(=O)Nc1cccn(CC(=O)NC2C3CCC2CC3)c1=O (stereo partly shown) ?
Response: 3 to 5

Prompt: Form field: reported logD of COC(=O)/C=C/CC[C@H](NC(=O)[C@@H]1CCCNC1)C(=O)Nc1cccn(CC(=O)NC2C3CC4CC(C3)CC2C4)c1=O (stereo partly shown)
Response: 3 to 5

* * *

Reported IC50 values for a set of molecules
# ASSAY SYSTEM: recombinant human transglutaminase 2 (Homo sapiens)
# ASSAY PROTOCOL: Transglutaminase assay (dansylcadaverine incorporation into dimethylcasein, DCC-assay)
# COND: recombinant human TG2 10 nM, dansylcadaverine/dimethylcasein, 37° C.

Examples with their reported IC50 follow.
MOLECULE | IC50
COC(=O)/C=C/CC[C@H](NC(=O)c1ccc2ccoc2c1)C(=O)Nc1cccn(CC(=O)NC2C3CC4CC2CC(C(N)=O)(C4)C3)c1=O (stereo partly drawn) [III-166] | 25 to 250 nM
COC(=O)/C=C/CC[C@H](NC(=O)c1cnccn1)C(=O)Nc1cccn(CC(=O)NC2C3CC4CC(C3)CC2C4)c1=O (stereo partly drawn) [III-24] | 25 to 250 nM
COC(=O)/C=C/CC[C@H](NC(=O)c1cncc([N+](=O)[O-])c1)C(=O)Nc1cccn(CC(=O)NC2C3CC4CC(C3)CC2C4)c1=O (stereo partly drawn) [III-34] | < 25 nM

Prompt: Find IC50 (recombinant human transglutaminase 2 (Homo sapiens)) for the entry COC(=O)/C=C/CC[C@H](NC(=O)c1cncn1C)C(=O)Nc1cccn(CC(=O)NC23CC4(C)CC(C)(CC(C)(C4)C2)C3)c1=O [III-91]
Response: < 25 nM

Prompt: API: value(readout=IC50, system=recombinant human transglutaminase 2 (Homo sapiens)) for record COC(=O)/C=C/CC[C@H](NC(=O)[C@@H]1CCCN1C(C)=O)C(=O)Nc1cccn(CC(=O)NC2C3CC4CC(C3)CC2C4)c1=O (stereo partly drawn) [III-21]
Response: < 25 nM

Prompt: Recall the recorded IC50 for COC(=O)/C=C/CC[C@H](NC(=O)c1cc(Cl)sc1Cl)C(=O)Nc1cccn(CC(=O)NC2C3CC4CC(C3)CC2C4)c1=O (stereo partly drawn) [III-13] with recombinant human transglutaminase 2 (Homo sapiens) and state it.
Response: < 25 nM
